B1: KSHV viral interferon regulatory factor 1, wild type, Flag-tagged (vIRF1-WT-Flag) [modified: lysine propionylation at Lys406 and Lys442 and lysine acetylation, as found on vIRF1 immunoprecipitated from these cells; lysine … (parent)
chain 1: MDPGQRPNPFGAPGAIPKKPCLSQGSPGTSGSGAPCDEPSRSESPGEGPSGTGGSAAAGDITRQAVVAAITEWSRTRQLRISTGASEGKASIKDWIVCQVNSGKFPGVEWEDEERTRFRIPVTPLADPCFEWRRDGELGVVYIRERGNMPVDASFKGTRGRRRMLAALRRTRGLQEIGKGISQDGHHFLVFRVRKPEEEQCVECGVVAGAVHDFNNMARLLQEGFFSPGQCLPGEIVTPVPSCTTAEGQEAVIDWGRLFIRMYYNGEQVHELLTTSQSGCRISSALRRDPAVHYCAVGSPGQVWLPNVPNLACEIAKRELCDTLDACAKGILLTSSCNGIFCVCYHNGPVHFIGNTVPPDSGPLLLPQGKPTRIFNPNTFLVGLANSPLPAPSHVTCPLVKLWLGKPVAVGKLEPHAPSPRDFAARCSNFSDACVVLEIMPKPLWDAMQ
chain 2: MGTPKPRILPWLVSQLDLGQLEGVAWVNKSRTRFRIPWKHGLRQDAQQEDFGIFQAWAEATGAYVPGRDKPDLPTWKRNFRSALNRKEGLRLAEDRSKDPHDPHKIYEFVNSGVGDFSQPDTSPDTNGGGSTSDTQEDILDELLGNMVLAPLPDPGPPSLAVAPEPCPQPLRSPSLDNPTPFPNLGPSENPLKRLLVPGEEWEFEVTAFYRGRQVFQQTISCPEGLRLVGSEVGDRTLPGWPVTLPDPGMSLTDRGVMSYVRHVLSCLGGGLALWRAGQWLWAQRLGHCHTYWAVSEELLPNSGHGPDGEVPKDKEGGVFDLGPFIVDLITFTEGSGRSPRYALWFCVGESWPQDQPWTKRLVMVKVVPTCLRALVEMARVGGASSLENTVDLHISNSHPLSLTSDQYKAYLQDLVEGMDFQGPGES

- Variants of: B1
- assay_text: co-immunoprecipitation (anti-Myc IP, anti-Flag Western blot)
- assay_setup: with Myc-tagged IRF3 (IRF3-Myc); HEK293T cells; parent: 1
Reported ratio to parent values for a set of variants
// no unit, no text: just the number

Past entries and their recorded results:
[[record]]
mutation_spec = "chain 1 K406R"
metric = "ratio to parent"
recorded_measurement = 0.5

[[record]]
mutation_spec = "chain 1 K442R"
metric = "ratio to parent"
recorded_measurement = 0.2

[[record]]
mutation_spec = "chain 1 K89R K93R K104R K156R K179R K195R"
metric = "ratio to parent"
recorded_measurement = 0.7


// switching to the query variant
-- ask State the recorded ratio to parent for this entry: chain 1 K317R K329R K370R K401R K406R K412R K442R
-- reply 0.1
